What normalised luminescence at PCT 1.1 pg/ml was measured for each of the following?
EXPERIMENTAL TARGET: Large subunit-rSCFV5 fusion protein
Sequence (chain, as listed by the source): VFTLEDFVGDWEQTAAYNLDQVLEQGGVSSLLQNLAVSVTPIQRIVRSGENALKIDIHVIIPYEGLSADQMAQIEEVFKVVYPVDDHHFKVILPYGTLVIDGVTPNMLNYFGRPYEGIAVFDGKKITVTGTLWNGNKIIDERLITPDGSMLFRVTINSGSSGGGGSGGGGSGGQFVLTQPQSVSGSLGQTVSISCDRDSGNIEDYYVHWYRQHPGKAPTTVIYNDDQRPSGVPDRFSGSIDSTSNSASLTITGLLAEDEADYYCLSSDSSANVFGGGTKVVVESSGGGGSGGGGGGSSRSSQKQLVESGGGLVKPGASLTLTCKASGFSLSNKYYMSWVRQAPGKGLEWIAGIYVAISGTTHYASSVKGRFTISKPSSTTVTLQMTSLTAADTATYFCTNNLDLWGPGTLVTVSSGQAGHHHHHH
METHOD DESCRIPTION: cell-based or functional assay
Returns: the value as a bare number; no unit string appended.

QUERY: Provide normalised luminescence at PCT 1.1 pg/ml value for the following binder: VSGWRIHEKIS (peptide, part only; not given: rSCFV18 scFv part, part only) [rSCFV18-small subunit mutant fusion protein RA120]
RESULT: 4900

QUERY: Answer with reported normalised luminescence at PCT 1.1 pg/ml of VEGYRLFNKEW (peptide, part only; not given: rSCFV18 scFv part, part only) [rSCFV18-small subunit mutant fusion protein RB284]
RESULT: 5090

QUERY: Name the recorded normalised luminescence at PCT 1.1 pg/ml of the binder listed here: VEGYRLFDKKW (peptide, part only; not given: rSCFV18 scFv part, part only) [rSCFV18-small subunit mutant fusion protein RB239]
RESULT: 5530

QUERY: Consider the binder VDGWRLHEKIS (peptide, part only; not given: rSCFV18 scFv part, part only) [rSCFV18-small subunit mutant fusion protein RA141] and give its recorded normalised luminescence at PCT 1.1 pg/ml.
RESULT: 4930

Values compiled from patent EP4700040A1.
